The values you see were collected from paper PMC11357256.

System: PNT2
Assay: MTT cell viability assay, PNT2 normal prostate epithelial cells
Type: cell-based
Details: Homo sapiens, 24 h
READOUT NAME: IC50

Tell me its IC50 given CC1(C)CCC2(C(=O)O)CCC3(C)C(=CCC4C5(C)CCC(OC6OC(C(=O)O)C(O)C(O)C6O)C(C)(C)C5CCC43C)C2C1 (centres unmarked) [CE] as the entry.
> 100 µg/mL

Fill in reported IC50 for this entry: CC1(C)CCC2(C(=O)O)CCC3(C)C(=CCC4C5(C)CCC(OC6OC(C(=O)O)C(O)C(OC7OCC(O)C(O)C7O)C6O)C(C)(C)C5CCC43C)C2C1 (centres unmarked) [MIc]
> 100 µg/mL

Kindly indicate its recorded IC50. Item: CC1(C)CC[C@]2(C(=O)O)CC[C@]3(C)C(=CC[C@@H]4[C@@]5(C)CC[C@H](O)C(C)(C)[C@@H]5CC[C@]43C)[C@@H]2C1 [OA, oleanolic acid]
> 100 µg/mL

Tell us which IC50 value is on record for CC1(C)CC[C@]2(C(=O)O[C@@H]3O[C@H](CO)[C@@H](O)[C@H](O)[C@H]3O)CC[C@]3(C)C(=CC[C@@H]4[C@@]5(C)CC[C@H](O[C@@H]6O[C@H](C(=O)O)[C@@H](O)[C@H](O)[C@H]6O)C(C)(C)[C@@H]5CC[C@]43C)[C@@H]2C1 [ChIVa]
> 100 µg/mL

// Input: COc1cccc2c1C(=O)c1c(O)c3c(c(O)c1C2=O)C[C@@](O)(C(=O)CO)C[C@@H]3O[C@H]1C[C@H](N)[C@H](O)[C@H](C)O1 [DOX, Doxorubicin] . Output its IC50 only.
1.4 µg/mL

---

System: Caco-2
Experiment: MTT cell viability assay, Caco-2 colon cancer cells
Format: cell-based
Settings: Homo sapiens, Caco-2, 24 h
// classify: if (IC50 < 7 µg/mL) satisfied else not satisfied

Is 7 µg/mL strictly greater than the compound's reported IC50? compound: CC1(C)CCC2(C(=O)O)CCC3(C)C(=CCC4C5(C)CCC(OC6OC(C(=O)O)C(O)C(O)C6O)C(C)(C)C5CCC43C)C2C1 (centres unmarked) [CE]
satisfied

Threshold test, IC50 < 7 µg/mL: COc1cccc2c1C(=O)c1c(O)c3c(c(O)c1C2=O)C[C@@](O)(C(=O)CO)C[C@@H]3O[C@H]1C[C@H](N)[C@H](O)[C@H](C)O1 [DOX, Doxorubicin]
satisfied

Could you please tell me whether IC50 recorded for CC1(C)CC[C@]2(C(=O)O)CC[C@]3(C)C(=CC[C@@H]4[C@@]5(C)CC[C@H](O)C(C)(C)[C@@H]5CC[C@]43C)[C@@H]2C1 [OA, oleanolic acid] is less than 7 µg/mL?
not satisfied

Answer whether the compound CC1(C)CC[C@]2(C(=O)O[C@@H]3O[C@H](CO)[C@@H](O)[C@H](O)[C@H]3O)CC[C@]3(C)C(=CC[C@@H]4[C@@]5(C)CC[C@H](O[C@@H]6O[C@H](C(=O)O)[C@@H](O)[C@H](O)[C@H]6O)C(C)(C)[C@@H]5CC[C@]43C)[C@@H]2C1 [ChIVa] has IC50 strictly less than 7 µg/mL
not satisfied

---

System: HTB-140
Assay: MTT cell viability assay, HTB-140 metastatic melanoma cells
Type: cell-based, human
Settings: IC50 HaCaT / IC50 HTB-140, 24 h
For each entry below, report its Selectivity Index (SI) value.
The answer should be written as a number, with no unit following it.

Please give the documented Selectivity Index (SI) of `CC1(C)CC[C@]2(C(=O)O)CC[C@]3(C)C(=CC[C@@H]4[C@@]5(C)CC[C@H](O)C(C)(C)[C@@H]5CC[C@]43C)[C@@H]2C1`
0.2

Assign Selectivity Index (SI) to the following record: CC1(C)CCC2(C(=O)O)CCC3(C)C(=CCC4C5(C)CCC(OC6OC(C(=O)O)C(O)C(OC7OCC(O)C(O)C7O)C6O)C(C)(C)C5CCC43C)C2C1 (centres unmarked)
0.7

Retrieve Selectivity Index (SI) measured for `CC1(C)CC[C@]2(C(=O)O[C@@H]3O[C@H](CO)[C@@H](O)[C@H](O)[C@H]3O)CC[C@]3(C)C(=CC[C@@H]4[C@@]5(C)CC[C@H](O[C@@H]6O[C@H](C(=O)O)[C@@H](O)[C@H](O)[C@H]6O)C(C)(C)[C@@H]5CC[C@]43C)[C@@H]2C1` and print it.
0.5

Look up and report measured Selectivity Index (SI) for this entry: CC1(C)CCC2(C(=O)O)CCC3(C)C(=CCC4C5(C)CCC(OC6OC(C(=O)O)C(O)C(O)C6O)C(C)(C)C5CCC43C)C2C1 (centres unmarked)
1.8

Return value of Selectivity Index (SI) for input `COc1cccc2c1C(=O)c1c(O)c3c(c(O)c1C2=O)C[C@@](O)(C(=O)CO)C[C@@H]3O[C@H]1C[C@H](N)[C@H](O)[C@H](C)O1` , no commentary.
0.8

---

Test system: Caco-2
Assay: MTT cell viability assay, Caco-2 colon cancer cells
Type: cell-based
Conditions: Homo sapiens, Caco-2, 48 h
READOUT NAME: IC50 (µg/mL)
The response must be a number in µg/mL with no trailing unit.

# return recorded IC50 for entry `CC1(C)CC[C@]2(C(=O)O)CC[C@]3(C)C(=CC[C@@H]4[C@@]5(C)CC[C@H](O)C(C)(C)[C@@H]5CC[C@]43C)[C@@H]2C1`
8.3

Tell us which IC50 value is on record for CC1(C)CCC2(C(=O)O)CCC3(C)C(=CCC4C5(C)CCC(OC6OC(C(=O)O)C(O)C(O)C6O)C(C)(C)C5CCC43C)C2C1 (stereo not shown)
1

Provide one value: measured IC50 of `CC1(C)CC[C@]2(C(=O)O[C@@H]3O[C@H](CO)[C@@H](O)[C@H](O)[C@H]3O)CC[C@]3(C)C(=CC[C@@H]4[C@@]5(C)CC[C@H](O[C@@H]6O[C@H](C(=O)O)[C@@H](O)[C@H](O)[C@H]6O)C(C)(C)[C@@H]5CC[C@]43C)[C@@H]2C1`
15.8

Return IC50 (reported value) for this compound: CC1(C)CCC2(C(=O)O)CCC3(C)C(=CCC4C5(C)CCC(OC6OC(C(=O)O)C(O)C(OC7OCC(O)C(O)C7O)C6O)C(C)(C)C5CCC43C)C2C1 (stereo not shown)
4.3

---

What IC50 was measured for each of the following?
Tested on: MCF7
Assay: MTT cell viability assay, MCF7 breast adenocarcinoma cells
Type: cell-based
Conditions: Homo sapiens, MCF7, 48 h

Annotate the molecule CC1(C)CC[C@]2(C(=O)O[C@@H]3O[C@H](CO)[C@@H](O)[C@H](O)[C@H]3O)CC[C@]3(C)C(=CC[C@@H]4[C@@]5(C)CC[C@H](O[C@@H]6O[C@H](C(=O)O)[C@@H](O)[C@H](O)[C@H]6O)C(C)(C)[C@@H]5CC[C@]43C)[C@@H]2C1 [ChIVa] with its measured IC50.
> 100 µg/mL

Specify IC50 for CC1(C)CCC2(C(=O)O)CCC3(C)C(=CCC4C5(C)CCC(OC6OC(C(=O)O)C(O)C(OC7OCC(O)C(O)C7O)C6O)C(C)(C)C5CCC43C)C2C1 (stereo not shown) [MIc] and stop.
29.2 µg/mL

Identify IC50 associated with the molecule CC1(C)CC[C@]2(C(=O)O)CC[C@]3(C)C(=CC[C@@H]4[C@@]5(C)CC[C@H](O)C(C)(C)[C@@H]5CC[C@]43C)[C@@H]2C1 [OA, oleanolic acid]
67 µg/mL

Answer with reported IC50 of CC1(C)CCC2(C(=O)O)CCC3(C)C(=CCC4C5(C)CCC(OC6OC(C(=O)O)C(O)C(O)C6O)C(C)(C)C5CCC43C)C2C1 (stereo not shown) [CE]
39.5 µg/mL

---

Test system: HaCaT
Experiment: MTT cell viability assay, HaCaT keratinocytes
Assay type: cell-based
Conditions: Homo sapiens, 48 h
Record form. Attribute: IC50. Fill in for each entry.
Report only the number, with the unit µg/mL understood.

Please report IC50 for the following compound: `CC1(C)CC[C@]2(C(=O)O[C@@H]3O[C@H](CO)[C@@H](O)[C@H](O)[C@H]3O)CC[C@]3(C)C(=CC[C@@H]4[C@@]5(C)CC[C@H](O[C@@H]6O[C@H](C(=O)O)[C@@H](O)[C@H](O)[C@H]6O)C(C)(C)[C@@H]5CC[C@]43C)[C@@H]2C1`
3.1

Check the records and state IC50 for CC1(C)CCC2(C(=O)O)CCC3(C)C(=CCC4C5(C)CCC(OC6OC(C(=O)O)C(O)C(O)C6O)C(C)(C)C5CCC43C)C2C1 (stereo not shown)
2

Consider the compound CC1(C)CCC2(C(=O)O)CCC3(C)C(=CCC4C5(C)CCC(OC6OC(C(=O)O)C(O)C(OC7OCC(O)C(O)C7O)C6O)C(C)(C)C5CCC43C)C2C1 (stereo not shown) . State its measured IC50.
2.7

Query IC50 for `CC1(C)CC[C@]2(C(=O)O)CC[C@]3(C)C(=CC[C@@H]4[C@@]5(C)CC[C@H](O)C(C)(C)[C@@H]5CC[C@]43C)[C@@H]2C1`
7.5
